meta.source: the supplement of paper PMC11451515

tested on: SEM cells; test: cell viability relative to DMSO control; higher = less cytotoxic; conditions: RPMI 5 mM glucose + 10% FBS; 48 h; 1.71 µM
experimentalReadout: cell viability (%)

CCC[C@H](NC(=O)/C(C#N)=C/c1cccc(Br)n1)c1ccccc1: 113
C[C@H](O)[C@H]1[C@@H]2[C@H](C)C(=C(\N2C1=O)C(O)=O)/S[C@@H]3CN[C@H](CN[S+](N)([O-])=O)C3: 112
O=C([O-])C(O)Cc1ccc(O)c(O)c1 (stereo not given): 76.2
CN(C)c1ccc(O)c2c1C[C@H]1C[C@H]3[C@H](N(C)C)C(O)=C(C(N)=O)C(=O)[C@@]3(O)C(O)=C1C2=O: 110
CC(C)NCC(O)COc1ccc(COCCOC(C)C)cc1 (stereo not given): 123
Cl.Cl.Cl.O[C@@H](COc1cccc2ncccc12)CN1CCN([C@@H]2c3ccccc3[C@@H]3[C@H](c4ccccc42)C3(F)F)CC1: 94.5
CC(C)(C)C(=O)Oc1ccc2c(c1)nc(NC(=O)c1cccc([N+](=O)[O-])c1)n2CCCO: 95.7
CC(NC1=CC=CC=C1)C\2=C\C(=C/N3C(=O)\C=C(/N=C23)N4CCOCC4)C (stereo not given): 119
COC1=NC(=NC(=C1N\C2=N\CCN2)Cl)C: 81.9
CC1(C)CCC[C@]2(C)[C@H]3CC(=O)O[C@]3(C)CC[C@@H]12: 115
